Tested on: A549 NSCLC
measurement description: NCI tumour cell line growth inhibition, 48 h
reported property: GI50

compound	reported property	endpoint value
CNCCCNCCCN1C(=O)c2ccc3c4c(ccc(c24)C1=O)C(=O)N(CCCNCc1ccccc1OC)C3=O	GI50	0.577 µM
N#C/C(=C\c1ccc(Br)cc1)n1nnc2ccccc21	GI50	0.808 µM
CSc1ncnc2c1CCN2	GI50	> 100 µM
Clc1ccc(Nc2ccnc(NCCCNc3ccnc4cc(Cl)ccc34)n2)cc1	GI50	1.73 µM
C1COCCOCCOCCOCCO1.CC(=O)[CH-]C(C)=O.CC(=O)[CH-]C(C)=O.CC(=O)[CH-]C(C)=O.[V]	GI50	22.7 µM
COc1ccc(N(C)c2c3ccccc3nc3[nH]c4ccccc4c23)cc1	GI50	0.724 µM
COc1ccc(-c2csc(NC(=O)c3cc(O)c(O)c(O)c3)n2)cc1	GI50	10.3 µM
OCc1ccc(N(CCN2CCCC2)Cc2ccc(F)cc2)cc1Cl	GI50	6.5 µM
CC(=O)OC1Oc2ccccc2-c2oc(=O)c(-c3cc4ccccc4oc3=O)cc21 (stereo unspecified)	GI50	15.4 µM
O=C(Nc1cccc(-n2cc(-c3ccncc3)c(-c3ccc(O)c(Cl)c3)n2)c1)Nc1cccc(C(F)(F)F)c1	GI50	1.93 µM
NC(=O)c1ccc2nc3c(n2c1)C(=O)C(=O)c1ccccc1-3	GI50	2.18 µM
O=C1CS/C(=N\S(=O)(=O)c2ccc(N3N=C4c5ccccc5CC4C3c3ccc(Cl)cc3)cc2)N1c1ccccc1 (stereo unspecified)	GI50	24.2 µM
CCOC(=O)Nc1nc2c(C)cccc2s1	GI50	43.9 µM
CN(C)CCCn1c2nc(=O)[nH]c(=O)c-2nc2cc(Cl)c(Cl)cc21	GI50	4.02 µM
CC(C)Nc1ncc2cc(Oc3ccc(F)cc3F)c(=O)n(C)c2n1	GI50	> 25 µM
N#Cc1c(N)nc(N2CCOCC2)c(C#N)c1-c1ccccc1Cl	GI50	66.5 µM
